B1: Histone-lysine N-methyltransferase SETD2, residues 2382 to 2430; numbered along this chain, Q9BYW2 (parent)
chain: SPPKPKTIVLPPNWKTARDPEGKIYYYHVITRQTQWDPPTWESPGDDAS

Variants of: B1
Assay: abundance fitness (aPCA) (normalised: wild type 0, dead -1); higher = more abundant; growth selection in yeast, the domain comes from the species named
Details: Homo sapiens
measured_quantity: abundance fitness
Number, no unit, nothing else.

>>> print(df.to_string())
                              sequence_data  result
0  SPPKPKTIVLPPNWKTARDPEGKIYYYHVITRQEQWDPPTWESPGDDAS [T34E]  -0.394

Exercise: Given SPPKPKTIVLPGNWKTARDPEGKIYYYHVITRQTQWDPPTWESPGDDAS [P12G] , state its recorded abundance fitness.
Key: -0.398

Exercise: Now the same for SPPKPKTIVLPPNWKTARDPEGKIYYYHVITRLTQWDPPTWESPGDDAS [Q33L]
Key: -0.411
